- Tested on: BT-474
- PROTOCOL SUMMARY: drug sensitivity score (DSS), CellTox Green (DSS (AUC-based score)); higher = stronger drug effect (viability inhibition or cytotoxicity); extreme values may be limits of the assay
- CONDITION INFO: incubation time: 72 h
MEASURED METRIC: drug sensitivity score
Answer as a number with no unit attached.

Challenge: // drug sensitivity score lookup, key: COc1cc(Nc2ncc3c(n2)-c2ccc(Cl)cc2C(c2c(F)cccc2OC)=NC3)ccc1C(=O)O [Alisertib]
Response given: 2.03

Challenge: Moving on to the next compound: C[C@]1(c2nc3c(C(N)=O)cccc3[nH]2)CCCN1 [Veliparib]
Response given: 0

Challenge: Moving on to the next compound: Cc1c2oc3c(C)ccc(C(=O)N[C@@H]4C(=O)N[C@H](C(C)C)C(=O)N5CCC[C@H]5C(=O)N(C)CC(=O)N(C)[C@@H](C(C)C)C(=O)O[C@@H]4C)c3nc-2c(C(=O)N[C@@H]2C(=O)N[C@H](C(C)C)C(=O)N3CCC[C@H]3C(=O)N(C)CC(=O)N(C)[C@@H](C(C)C)C(=O)O[C@@H]2C)c(N)c1=O [Dactinomycin]
Response given: 2.02

Challenge: Moving on to the next compound: CN(C)C/C=C/C(=O)Nc1cc2c(Nc3ccc(F)c(Cl)c3)ncnc2cc1O[C@H]1CCOC1 [Afatinib]
Response given: 3.66

Challenge: Moving on to the next compound: OC[C@H]1O[C@@H](n2cnc3c2N=CNC[C@H]3O)C[C@@H]1O [Pentostatin]
Response given: 0

Challenge: Moving on to the next compound: C=CC[C@@H]1/C=C(\C)C[C@H](C)C[C@H](OC)[C@H]2O[C@@](O)(C(=O)C(=O)N3CCCC[C@H]3C(=O)O[C@H](/C(C)=C/[C@@H]3CC[C@@H](O)[C@H](OC)C3)[C@H](C)[C@@H](O)CC1=O)[C@H](C)C[C@@H]2OC [Tacrolimus]
Response given: 0

Challenge: Moving on to the next compound: `CN1CCC(COc2cnc(-c3cccc(Cn4nc(-c5cccc(C#N)c5)ccc4=O)c3)nc2)CC1`
Response given: 0

Challenge: Moving on to the next compound: CC(=O)O[C@]1(C(C)=O)CC[C@H]2[C@@H]3C=C(C)C4=CC(=O)CC[C@]4(C)[C@H]3CC[C@@]21C [Megestrol acetate]
Response given: 0

Challenge: Moving on to the next compound: Clc1ccc(C(c2ccccc2Cl)C(Cl)Cl)cc1 (centres undefined) [Mitotane]
Response given: 0

====

- Tested on: MCF-10A
- PROTOCOL SUMMARY: normalised response (% of control), CellTiter-Glo; higher = more viable cells (100 = DMSO, 0 = benzethonium chloride kill control)
- CONDITION INFO: incubation time: 72 h
MEASURED METRIC: normalised response (%)
Numbers only here, please. The scale is %.

Challenge: Find the measured normalised response: item COc1cccc2c1C(=O)c1c(O)c3c(c(O)c1C2=O)C[C@@](O)(C(=O)CO)C[C@@H]3O[C@H]1C[C@H](N)[C@H](O)[C@H](C)O1 [Doxorubicin] (10 nM) , target or system MCF-10A.
Response given: 98.4

Challenge: Moving on to the next compound: O=C(c1ccc(C(=O)N2CCC(N3CCCC3)CC2)c(Nc2ccccc2)c1)N1CCC(N2CCCC2)CC1 [UNC1215] (300 nM)
Response given: 94.5

Challenge: Moving on to the next compound: Nc1nc(Cl)nc2c1ncn2[C@H]1C[C@H](O)[C@@H](CO)O1 [Cladribine] (10 nM)
Response given: 99.5

Challenge: Moving on to the next compound: C=CC[C@@H]1/C=C(\C)C[C@H](C)C[C@H](OC)[C@H]2O[C@@](O)(C(=O)C(=O)N3CCCC[C@H]3C(=O)O[C@H](/C(C)=C/[C@@H]3CC[C@@H](O)[C@H](OC)C3)[C@H](C)[C@@H](O)CC1=O)[C@H](C)C[C@@H]2OC [Tacrolimus] (100 nM)
Response given: 102

Challenge: Moving on to the next compound: Cc1ccc(F)c(NC(=O)Nc2ccc(-c3cccc4[nH]nc(N)c34)cc2)c1 [Linifanib] (10 nM)
Response given: 110

Challenge: Moving on to the next compound: C[C@]1(c2nc3c(C(N)=O)cccc3[nH]2)CCCN1 [Veliparib] (100 nM)
Response given: 96.5

Challenge: Moving on to the next compound: CS(=O)(=O)c1ccc(C(=O)Nc2ccc(Cl)c(-c3ccccn3)c2)c(Cl)c1 [Vismodegib] (100 nM)
Response given: 93

Challenge: Moving on to the next compound: COc1cccc2cc(-c3nc([C@H]4CC[C@H](C(=O)O)CC4)n4ncnc(N)c34)[nH]c12 [OSI-027] (100 nM)
Response given: 86.7

Challenge: Moving on to the next compound: OC[C@H]1O[C@@H](n2cnc3c2N=CNC[C@H]3O)C[C@@H]1O [Pentostatin] (100 nM)
Response given: 102

====

- Test system: MDA-MB-468
- PROTOCOL SUMMARY: normalised response (% of control), CellTox Green; higher = less cell death (100 = DMSO, 0 = benzethonium chloride kill control)
- CONDITION INFO: incubation time: 72 h
Kindly supply the reported normalised response values for the records listed here.
Numbers only here, please. The scale is %.

Challenge: // normalised response lookup, key: Nc1nc(Cl)nc2c1ncn2[C@H]1C[C@H](O)[C@@H](CO)O1 [Cladribine] (100 nM)
Response given: 72.2

Challenge: Moving on to the next compound: C=CC[C@@H]1/C=C(\C)C[C@H](C)C[C@H](OC)[C@H]2O[C@@](O)(C(=O)C(=O)N3CCCC[C@H]3C(=O)O[C@H](/C(C)=C/[C@@H]3CC[C@@H](O)[C@H](OC)C3)[C@H](C)[C@@H](O)CC1=O)[C@H](C)C[C@@H]2OC [Tacrolimus] (100 nM)
Response given: 186

Challenge: Moving on to the next compound: OC[C@H]1O[C@@H](n2cnc3c2N=CNC[C@H]3O)C[C@@H]1O [Pentostatin] (100 nM)
Response given: 104

====

- System: BT-474
- PROTOCOL SUMMARY: drug sensitivity score (DSS), CellTiter-Blue viability (DSS (AUC-based score)); higher = stronger viability inhibition; extreme values may be limits of the assay
- CONDITION INFO: incubation time: 72 h
MEASURED METRIC: drug sensitivity score

Challenge: // drug sensitivity score lookup, key: `S=c1[nH]cnc2nc[nH]c12`
Response given: 0

Challenge: Moving on to the next compound: Clc1ccc(C(c2ccccc2Cl)C(Cl)Cl)cc1 (stereo not drawn)
Response given: 0

Challenge: Moving on to the next compound: `COc1cccc2cc(-c3nc([C@H]4CC[C@H](C(=O)O)CC4)n4ncnc(N)c34)[nH]c12`
Response given: 9.76

Challenge: Moving on to the next compound: `COc1cccc2c1C(=O)c1c(O)c3c(c(O)c1C2=O)C[C@@](O)(C(=O)CO)C[C@@H]3O[C@H]1C[C@H](N)[C@H](O)[C@H](C)O1`
Response given: 4.12

Challenge: Moving on to the next compound: `Nc1ccn([C@@H]2O[C@H](CO)[C@@H](O)[C@@H]2O)c(=O)n1`
Response given: 0

Challenge: Moving on to the next compound: `COc1cc(Nc2ncc3c(n2)-c2ccc(Cl)cc2C(c2c(F)cccc2OC)=NC3)ccc1C(=O)O`
Response given: 4.4

Challenge: Moving on to the next compound: `Nc1nc(Cl)nc2c1ncn2[C@H]1C[C@H](O)[C@@H](CO)O1`
Response given: 0

Challenge: Moving on to the next compound: `OC[C@H]1O[C@@H](n2cnc3c2N=CNC[C@H]3O)C[C@@H]1O`
Response given: 0

====

- Test system: CAL-148
- PROTOCOL SUMMARY: normalised viability (% of control), CellTiter-Blue; higher = more viable cells (about 100 = DMSO control)
- CONDITION INFO: incubation time: 72 h
Kindly supply the reported normalised viability values for the records listed here.
Numbers only here, please. The scale is %.

Challenge: // normalised viability lookup, key: C[C@]1(c2nc3c(C(N)=O)cccc3[nH]2)CCCN1 [Veliparib] (3000 nM)
Response given: 91.8

Challenge: Moving on to the next molecule: Cc1c2oc3c(C)ccc(C(=O)N[C@@H]4C(=O)N[C@H](C(C)C)C(=O)N5CCC[C@H]5C(=O)N(C)CC(=O)N(C)[C@@H](C(C)C)C(=O)O[C@@H]4C)c3nc-2c(C(=O)N[C@@H]2C(=O)N[C@H](C(C)C)C(=O)N3CCC[C@H]3C(=O)N(C)CC(=O)N(C)[C@@H](C(C)C)C(=O)O[C@@H]2C)c(N)c1=O [Dactinomycin] (300 nM)
Response given: 11.4

Challenge: Moving on to the next molecule: Cc1ccc(F)c(NC(=O)Nc2ccc(-c3cccc4[nH]nc(N)c34)cc2)c1 [Linifanib] (300 nM)
Response given: 104

Challenge: Moving on to the next molecule: Clc1ccc(C(c2ccccc2Cl)C(Cl)Cl)cc1 (stereo not given) [Mitotane] (3000 nM)
Response given: 103

Challenge: Moving on to the next molecule: C=CCNC1=C2C[C@@H](C)C[C@H](OC)[C@H](O)[C@@H](C)/C=C(\C)[C@H](OC(N)=O)[C@@H](OC)/C=C\C=C(/C)C(=O)NC(=CC1=O)C2=O [Tanespimycin] (3000 nM)
Response given: 17.2
